Biological target: T1, recombinant human Fc-PD-1 protein (human, UniProt Q15116 25-170)
T1 construct: may be the same protein as the PD-1 Fc fusion of the Luminex assays; also called recombinant human PD-1 in an Fc fusion construct; not shown: Fc part not described
T1 sequence (Q15116 25-170): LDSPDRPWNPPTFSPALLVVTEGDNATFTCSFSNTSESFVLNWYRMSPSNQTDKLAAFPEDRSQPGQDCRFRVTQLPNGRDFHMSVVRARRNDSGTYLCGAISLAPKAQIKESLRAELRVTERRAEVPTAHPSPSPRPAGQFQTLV
Assay: Biacore, Fab, human Fc-PD-1
Reported koff is given for each of the following binders.
Return type: number; implicit unit s⁻¹.

>>> observed_value("A36443 (Fab, V domains shown, humanized Fab clone of 135C12; also called humanized antibody A36443) VH: EVQLVQSGAEVKKPGATVKISCKVSGYTFTNFYIHWVRQARGQRLEWIGSIYPNYGDTAYNQKFKDRVTITADKSTSTAYMELSSLRSEDTAVYYCARGYSYAMDYWGQGTTVTVSS VL: DIQMTQSPSSVSASVGDRVTITCSASQGISGDLNWYQQKPGQAPRLLIYHTSSLHSGVPSRFSGSGSGTEFTLTISRLEPEDFAVYYCQYYSKDLLTFGGGTKLEIK")
0.000215

# ---- query binder ----
Task: Reported koff, binder A36448 (Fab, V domains shown, humanized Fab clone of 135C12; also called humanized antibody A36448) VH: EVQLVQSGAEVKKPGESLKISCKGSGYSFTNFYIHWVRQMPGKGLEWMGSIYPNYGDTAYNQKFKDRFVFSLDTSVSTAYLQISSLKAEDTAVYYCARGYSYAMDYWGQGTTVTVSS VL: DIQMTQSPSTLSASVGDRVTITCSASQGISGDLNWYQQKPGKTPKLLIYHTSSLHSGVPSRFSGSGSGTDFTLTISSLQPEDFATYYCQYYSKDLLTFGGGTKLEIK : ____
Output: 0.000386

Data credit: patent US20220259315A1
